Property: koff; scope: individual binders
- tested-target: T1, recombinant human IL-23R/Fc chimera (R&D Systems) (human, UniProt Q5VWK5 24-355)
- T1 construct: Bought; also called rhIL23RFc
- T1 sequence (looked up): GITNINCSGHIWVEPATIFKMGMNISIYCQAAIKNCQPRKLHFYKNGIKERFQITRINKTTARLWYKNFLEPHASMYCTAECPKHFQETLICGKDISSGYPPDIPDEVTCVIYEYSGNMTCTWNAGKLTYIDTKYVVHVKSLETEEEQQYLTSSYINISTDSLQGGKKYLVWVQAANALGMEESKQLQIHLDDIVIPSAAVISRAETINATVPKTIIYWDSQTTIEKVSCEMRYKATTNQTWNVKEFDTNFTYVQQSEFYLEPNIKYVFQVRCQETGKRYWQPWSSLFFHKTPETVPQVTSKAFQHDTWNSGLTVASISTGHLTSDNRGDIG
- protocol-details: SPR
# unit: s⁻¹ | format: bare number

[[record]]
binder = "001-89.C12E monomeric CTLD (designed binder, C-terminal tag not specified) ALQTVCLKGTKVHMKCFLAFTQTKTFHEASEDCISRGGTLSTPQTGSENDALYEYLRQSVGNEAEIWLGLNWTKRTALWVDMTGARIAYKNWETEITAQPDGGMFGMGENCAVLSGAANGKWFDKRCRDQLPYICQFGIV"
reading = 0.0074


Kindly consider the entry below.
Which koff reading was recorded for the binder 101-54-4B3 ATRIMER complex (designed binder) EPPTQKPKKIVNAKKDVVNTKMFEELKSRLDTLAQEVALLKEQQALQTVCLKGTKVHMKCFLAFTQTKTFHEASEDCISRGGTLSTPQTGSENDALYEYLRQSVGNEAEIWLGLNGSALTNTWVDMTGARIAYKNWELPPPGHPQGGFGVFGENCAVLSGAANGKWFDKRCRDQLPYICQFGIV ?
0.000364
